The origin of these recorded values is patent US10087191B2.

# Assay Target: estrogen receptor (ER) (Homo sapiens (Human), UniProt P03372)
# Sequence (P03372 whole entry): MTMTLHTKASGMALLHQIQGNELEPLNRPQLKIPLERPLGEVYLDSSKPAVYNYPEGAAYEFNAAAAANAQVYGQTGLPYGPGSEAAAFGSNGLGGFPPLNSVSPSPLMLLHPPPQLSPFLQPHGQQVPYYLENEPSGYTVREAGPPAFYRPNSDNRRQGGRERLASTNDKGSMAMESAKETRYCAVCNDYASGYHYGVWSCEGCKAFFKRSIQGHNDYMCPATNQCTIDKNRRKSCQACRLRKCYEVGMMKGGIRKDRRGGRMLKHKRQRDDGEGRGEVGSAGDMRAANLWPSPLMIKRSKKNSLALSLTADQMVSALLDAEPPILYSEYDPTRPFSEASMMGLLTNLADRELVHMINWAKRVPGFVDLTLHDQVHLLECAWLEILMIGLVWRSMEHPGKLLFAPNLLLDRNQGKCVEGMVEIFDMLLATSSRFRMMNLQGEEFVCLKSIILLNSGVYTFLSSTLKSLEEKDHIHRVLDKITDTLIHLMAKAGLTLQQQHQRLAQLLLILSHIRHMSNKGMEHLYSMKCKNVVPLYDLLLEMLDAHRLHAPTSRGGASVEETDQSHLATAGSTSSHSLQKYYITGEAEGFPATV
# Test Summary: Inhibition of the binding of estrogen (E) to estrogen receptor (ER), MCF-7/ERE-luciferase reporter cells
# Format: cell-based
# Measurement Parameters: MCF-7/ERE-luciferase cells, 0.1 nM estradiol, 24 hours; read-out: IC50 value of inhibition effect on the binding of E to ER
pIC50: −log10 of the molar value.
Assay Metric: pIC50

Compound	Numeric Result
CC1Cc2cc(N3Cc4ccncc4C3)ccc2C(c2c(F)cc(/C=C/C(=O)O)cc2F)N1CC(C)(C)F (stereo not drawn) [Example 42]	8.09
CC1Cc2cc(N3CCN(C)C(=O)C3)ccc2C(c2c(F)cc(/C=C/C(=O)O)cc2F)N1CC(C)(C)F (stereo not drawn) [Example 39]	7.85
CC1Cc2cc(-c3ncco3)ccc2C(c2c(F)cc(/C=C/C(=O)O)cc2F)N1CC(C)(C)F (stereo not drawn) [Example 54]	8.03
C[C@@H]1Cc2cc(-c3cnn(C)c3)ccc2[C@@H](c2c(F)cc(/C=C/C(=O)O)cc2F)N1CC(C)(C)F [Example 57]	9.48
CC1Cc2cc(-c3cnn(C(C)C)c3)ccc2C(c2c(F)cc(/C=C/C(=O)O)cc2F)N1CC(C)(C)F (stereo not drawn) [Example 50]	8.01
CC1Cc2cc3c(cc2C(c2c(F)cc(/C=C/C(=O)O)cc2F)N1CC(C)(C)F)OCCO3 (stereo not drawn) [Example 2]	8.49
CCn1cc(-c2ccc3oc4c(c3c2)C[C@H](C)N(CC(C)(C)F)[C@H]4c2c(F)cc(/C=C/C(=O)O)cc2F)cn1 [Example 96]	7.51
C[C@@H]1Cc2c(oc3ccccc23)[C@@H](c2c(F)cc(/C=C/C(=O)O)cc2F)N1CC(C)(C)F [Example 68]	9.51
CC1CN(c2ccc3c(c2)CC(C)N(CC(C)(C)F)C3c2c(F)cc(/C=C/C(=O)O)cc2F)CCO1 (stereo not drawn) [Example 38]	8.35
CC1Cc2cc(-c3ccc4ncccc4c3)ccc2C(c2c(F)cc(/C=C/C(=O)O)cc2F)N1CC(C)(C)F (stereo not drawn) [Example 63]	8.77
CC(C)Cn1cc(-c2ccc3c(c2)CC(C)N(CC(C)(C)F)C3c2c(F)cc(/C=C/C(=O)O)cc2F)cn1 (stereo not drawn) [Example 52]	7.59
C[C@H]1Cc2cc3c(cc2[C@H](c2c(F)cc(/C=C/C(=O)O)cc2F)N1CC(C)(C)F)OCO3 [Example 72]	7.39
C[C@@H]1Cc2cc3c(cc2[C@@H](c2c(F)cc(/C=C/C(=O)O)cc2F)N1CC(C)(C)F)OCO3 [Example 71]	9.13
CC1Cc2cc(N3CCOCC3)ccc2C(c2c(F)cc(/C=C/C(=O)O)cc2F)N1CC(C)(C)F (stereo not drawn) [Example 41]	8.71
CC1Cc2c(ccc3c2OCO3)C(c2c(F)cc(/C=C/C(=O)O)cc2F)N1CC(C)(C)F (stereo not drawn) [Example 82]	7.87
CC1Cc2cc(O[C@H]3CCOC3)ccc2C(c2c(F)cc(/C=C/C(=O)O)cc2F)N1CC(C)(C)F (stereo partly drawn) [Example 37]	7.86
CC1Cc2c(ccc(-c3cnn(C)c3)c2F)C(c2c(F)cc(/C=C/C(=O)O)cc2F)N1CC(C)(C)F (stereo not drawn) [Example 45]	9.06
CC1Cc2cc(C#N)ccc2C(c2c(F)cc(/C=C/C(=O)O)cc2F)N1CC(C)(C)F (stereo not drawn) [Example 93]	7.89
CC(C)CN1C(C)Cc2c(ccc3[nH]ncc23)C1c1ccc(/C=C/C(=O)O)cc1 (stereo not drawn) [Example 102]	9.19
CC1Cc2cc(-c3ccccc3)ccc2C(c2c(F)cc(/C=C/C(=O)O)cc2F)N1CC(C)(C)F (stereo not drawn) [Example 59]	8.25
CC1Cc2cc(OC3CCOCC3)ccc2C(c2c(F)cc(/C=C/C(=O)O)cc2F)N1CC(C)(C)F (stereo not drawn) [Example 36]	7.60
C[C@H]1Cc2cc(-c3ccc4cnccc4c3)ccc2[C@H](c2c(F)cc(/C=C/C(=O)O)cc2F)N1CC(C)(C)F [Example 99]	7.11
CC1Cc2cc(NC(=O)OC(C)(C)C)ccc2C(c2c(F)cc(/C=C/C(=O)O)cc2F)N1CC(C)(C)F (stereo not drawn) [Example 31]	7.08
CC1Cc2cc3c(cc2C(c2ccc(/C=C/C(=O)O)cc2)N1CC(C)(C)F)OCO3 (stereo not drawn) [Example 83]	7.69

---

# Test Summary: Pharmacokinetics assay in BALB/C nude mice after intragastrical administration
# Assay type: in vivo
# Measurement Parameters: female, mouse, plasma, po, 3 mg/kg, read-out: Mean Residence Time MRT
This listing pairs molecules with measured MRT.

Molecule	MRT / h
C[C@@H]1Cc2cc3c(cc2[C@@H](c2c(F)cc(/C=C/C(=O)O)cc2F)N1CC(C)(C)F)OCO3	2.62
CCn1cc(-c2ccc3c(c2)CC(C)N(CC(C)(C)F)C3c2c(F)cc(/C=C/C(=O)O)cc2F)cn1 (stereo not drawn)	4.07
CC1Cc2c(oc3ccc(-c4cnn(C)c4)cc23)C(c2c(F)cc(/C=C/C(=O)O)cc2F)N1CC(C)(C)F (stereo not drawn)	5.69

---

# Assay Target: estrogen receptor (ER) (Homo sapiens (Human))
# Test Summary: Inhibition of the binding of estrogen (E) to estrogen receptor (ER), MCF-7/ERE-luciferase reporter cells
# Measurement Parameters: MCF-7/ERE-luciferase cells, 0.1 nM estradiol, 24 hours; read-out: IC50 value of inhibition effect on the binding of E to ER
pIC50: −log10 of the molar value.
Classification field: 1 = pIC50 at or over 8; -1 = pIC50 under 8.

Compound	Label
CC1Cc2c(oc3cc(F)ccc23)C(c2c(F)cc(/C=C/C(=O)O)cc2F)N1CC(C)(C)F (stereo not shown)	1
CC1Cc2cc(-c3cnn(CCF)c3)ccc2C(c2c(F)cc(/C=C/C(=O)O)cc2F)N1CC(C)(C)F (stereo not shown)	1
C[C@H]1Cc2c(ccc3[nH]ncc23)[C@H](c2c(F)cc(/C=C/C(=O)O)cc2F)N1CC(C)(C)F	-1
C[C@@H]1Cc2cc(-c3ccc4ncccc4c3)ccc2[C@@H](c2c(F)cc(/C=C/C(=O)O)cc2F)N1CC(C)(C)F	1
CCn1cc(-c2ccc3c(c2F)CC(C)N(CC(C)(C)F)C3c2c(F)cc(/C=C/C(=O)O)cc2F)cn1 (stereo not shown)	1
Cc1ccc(-c2ccc3c(c2)CC(C)N(CC(C)(C)F)C3c2c(F)cc(/C=C/C(=O)O)cc2F)s1 (stereo not shown)	1
CC1Cc2cc(C3CC3)ccc2C(c2c(F)cc(/C=C/C(=O)O)cc2F)N1CC(C)(C)F (stereo not shown)	-1
CC1Cc2c(oc3ccc(-c4cn[nH]c4)cc23)C(c2c(F)cc(/C=C/C(=O)O)cc2F)N1CC(C)(C)F (stereo not shown)	1
CC1Cc2c(oc3cc(Cl)ccc23)C(c2c(F)cc(/C=C/C(=O)O)cc2F)N1CC(C)(C)F (stereo not shown)	-1
